# tgt: PDGF-receptor beta enzyme comprising the tyrosine kinase domain (Homo sapiens, UniProt P09619)
# Construct: from amino acid 545 to 1106 of GenBank Access NO: AAA36427
# Sequence (P09619 545-1106): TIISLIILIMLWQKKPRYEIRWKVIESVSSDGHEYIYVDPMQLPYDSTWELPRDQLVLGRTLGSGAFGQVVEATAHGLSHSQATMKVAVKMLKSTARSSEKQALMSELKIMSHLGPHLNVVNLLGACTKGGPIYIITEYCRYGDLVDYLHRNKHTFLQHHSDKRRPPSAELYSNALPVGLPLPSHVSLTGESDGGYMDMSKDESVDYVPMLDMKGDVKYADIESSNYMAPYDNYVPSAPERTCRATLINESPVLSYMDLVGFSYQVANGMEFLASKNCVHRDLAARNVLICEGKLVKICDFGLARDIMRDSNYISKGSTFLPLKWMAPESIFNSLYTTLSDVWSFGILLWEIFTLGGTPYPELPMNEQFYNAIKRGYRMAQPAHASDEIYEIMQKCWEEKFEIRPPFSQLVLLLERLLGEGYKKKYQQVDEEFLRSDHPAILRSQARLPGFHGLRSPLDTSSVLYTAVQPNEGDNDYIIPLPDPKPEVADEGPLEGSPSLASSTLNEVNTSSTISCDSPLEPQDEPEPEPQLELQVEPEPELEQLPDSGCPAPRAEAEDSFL
# procedure_summary: Inhibition of PDGF-receptor kinase activity (cell-free, PLC1 peptide, 33P Flashplate)
# Format: biochemical
# study_conditions: PDGF-R kinase activity; compound at 10 uM; read-out: Percent Inhibition @ 10 uM
Classify as follows. Reported inhibition at 10 µM greater than or equal to 90%: true (1). Reported inhibition at 10 µM below: false (0).

Check this molecule for inhibition at 10 µM at or above 90%: COc1cccc(Nc2[nH]nc3c2Cc2ccccc2-3)c1 [Compound 343]
true (1)

Check this molecule for inhibition at 10 µM at or above 90%: CCOc1cccc(Nc2[nH]nc3c2Cc2cc(OCC)c(OCC(O)CN4CCCC4)cc2-3)c1 (stereo not drawn) [Compound 463]
true (1)

Check this molecule for inhibition at 10 µM at or above 90%: COc1cc2c(cc1OC)-c1nn([C@@H]3O[C@H](C(=O)O)[C@@H](O)[C@H](O)[C@H]3O)c(Nc3cccc(F)c3)c1C2 [Compound 529]
false (0)

Check this molecule for inhibition at 10 µM at or above 90%: COc1cc2c(cc1OC)-c1c(c(Nc3cccc(F)c3)nn1C)C2 [Compound 609]
false (0)

Check this molecule for inhibition at 10 µM at or above 90%: Fc1ccc2c(c1)Cc1c-2n[nH]c1Nc1ccc(OC(F)(F)F)cc1 [Compound 238]
false (0)

Check this molecule for inhibition at 10 µM at or above 90%: COc1cc2c(cc1OCCCN1CCN(C)CC1)Cc1c-2n[nH]c1Nc1cccc(Cl)c1 [Compound 213]
false (0)

Check this molecule for inhibition at 10 µM at or above 90%: COc1cccc2c1Cc1c-2n[nH]c1Nc1ccccc1 [Compound 8]
true (1)

Check this molecule for inhibition at 10 µM at or above 90%: COc1cccc(Nc2[nH]nc3c2Cc2cc(Cl)ccc2-3)c1 [Compound 190]
false (0)

Check this molecule for inhibition at 10 µM at or above 90%: CN(C)CCCOc1cccc2c1Cc1c-2n[nH]c1Nc1cccnc1 [Compound 75]
true (1)

Check this molecule for inhibition at 10 µM at or above 90%: CNC(=O)n1nc2c(c1Nc1cccc(F)c1)Cc1cc(OC)c(OC)cc1-2 [Compound 579]
false (0)

Check this molecule for inhibition at 10 µM at or above 90%: COc1cccc(Nc2[nH]nc3c2Cc2cc(Br)c(OC)cc2-3)c1 [Compound 370]
true (1)

Check this molecule for inhibition at 10 µM at or above 90%: CC1c2ccccc2-c2n[nH]c(Nc3cccc(C(F)(F)F)c3)c21 (stereo not drawn) [Compound 114]
false (0)

Check this molecule for inhibition at 10 µM at or above 90%: COc1cc2c(cc1F)Cc1c-2n[nH]c1Nc1cccnc1 [Compound 364]
true (1)

Check this molecule for inhibition at 10 µM at or above 90%: CN(C)c1ccc2c(c1)Cc1c-2n[nH]c1Nc1ccccc1 [Compound 92]
false (0)

---

# tgt: PDGF-receptor beta enzyme comprising the tyrosine kinase domain (Homo sapiens)
# Construct: from amino acid 545 to 1106 of GenBank Access NO: AAA36427
# procedure_summary: Inhibition of PDGF-receptor kinase activity (cell-free, PLC1 peptide, 33P Flashplate)
# Format: biochemical
# study_conditions: PDGF-R kinase activity; compound at 10 uM; read-out: Percent Inhibition @ 10 uM
experimental_endpoint: inhibition at 10 µM (%)
The answer is to be given in %; state only the numeric part.

Return inhibition at 10 µM (reported value) for this molecule: Fc1ccc2c(c1)Cc1c-2n[nH]c1NCc1cc(Cl)cc(Cl)c1 [Compound 304]
38

Return inhibition at 10 µM (reported value) for this molecule: COc1cccc(Nc2[nH]nc3c2Cc2cc(OCCCN4CCOCC4)c(OC)cc2-3)c1 [Compound 131]
97

Return inhibition at 10 µM (reported value) for this molecule: CCOc1cc2c(cc1OCC)-c1n[nH]c(NCc3ccccc3Cl)c1C2 [Compound 292]
86.5

Return inhibition at 10 µM (reported value) for this molecule: CCC1c2cc(OC)c(OC)cc2-c2n[nH]c(NCc3c(Cl)cccc3Cl)c21 (single isomer, unassigned) [Compound 585]
102
